Consider the following sequences and their measured protein stability index readings.
Test Summary: protein stability index of a GFP-peptide fusion (yeast GPS) (PSI 1-4); higher = more stable; sorted into four equal gates, so the index is relative within each strain
Test Settings: doa10∆
Number only, no unit.

stdin: What value of protein stability index has been reported for the following sequence? RTLTAVHDKVLEDMVFP [RPS7B]
stdout: 3

stdin: What value of protein stability index has been reported for the following sequence? SLDAREANFDLINIDTS [RPC40]
stdout: 3.5

stdin: What value of protein stability index has been reported for the following sequence? KTCAEVIGGNSLFHIVV [SMC3]
stdout: 3.05

stdin: What value of protein stability index has been reported for the following sequence? FTSAPIEVTIGIDQYSF [AAR2]
stdout: 1.52

stdin: What value of protein stability index has been reported for the following sequence? EILVTELTAQGYDPALL [RPN2]
stdout: 2.8

stdin: What value of protein stability index has been reported for the following sequence? DNKEKDFELEISWCSLS [PRE10]
stdout: 3.54

stdin: What value of protein stability index has been reported for the following sequence? FEQKGSQTTTNDSKEES [YLR335W/NUP2]
stdout: 3.27

stdin: What value of protein stability index has been reported for the following sequence? ERVRNFAVIYLCDIDEV [DIB1]
stdout: 1.26

stdin: What value of protein stability index has been reported for the following sequence? RTLLTEEIEPKLEKLRN [SMC2]
stdout: 3.02

stdin: What value of protein stability index has been reported for the following sequence? PFREFLQVLIDQLDSEA [ECM29]
stdout: 3.38

stdin: What value of protein stability index has been reported for the following sequence? QHQEEPLLSLDVTPISM [RPN4]
stdout: 2.77

stdin: What value of protein stability index has been reported for the following sequence? IYNSASKASMQKEQNVN [YCS4]
stdout: 1.65

stdin: What value of protein stability index has been reported for the following sequence? EFTENELNVDSMDVDDK [ITC1]
stdout: 3.18
